Data origin, for the record: patent US20250170090A1

Listed next: entries and their corresponding activation at 100 µM.
system: HUVEC cells; experiment: CCK-8 cell viability: alleviation of proliferative toxicity of anti-tumor agents on HUVEC cells (Tables 7-1, 7-2); format: cell-based; details: Homo sapiens, 24 h, Famitinib (5 μM), NO-NSAID 100 μM, percentage increase in viable cells vs anti-tumor agent alone, read-out: Response rate % (average)
Output spec: scalar in %, unitless text.

CC(C)Cc1ccc(C(C)C(=O)OCO/N=[N+](\[O-])N(C)C)cc1 (centres unmarked) [Compound A4]: 69
COc1ccc2cc(C(C)C(=O)OCC(CO[N+](=O)O)C[N+](=O)[O-])ccc2c1 (centres unmarked) [Compound A9]: 33
CC(=O)Oc1ccccc1C(=O)Oc1cccc(CO[N+](=O)[O-])c1 [Compound A2]: 31
COc1ccc2cc(C(C)C(=O)OCCCCO[N+](=O)[O-])ccc2c1 (centres unmarked) [Compound A5]: 35
CC(C(=O)OCC(CO[N+](=O)[O-])O[N+](=O)[O-])c1ccc(-c2ccccc2)c(F)c1 (centres unmarked) [Compound A10]: 49

# lookup: activation at 100 µM of CC(C(=O)OCCCO[N+](=O)[O-])c1ccc(-c2ccccc2)c(F)c1 (centres unmarked) [Compound A1]
70

What value of activation at 100 µM has been reported for the following compound? CC(=O)Oc1ccccc1C(=O)OCOC(=O)CCCCCO[N+](=O)[O-] [Compound A3]
39

# get_value(readout='activation at 100 µM', item= CC(=O)Oc1ccccc1C(=O)OCc1no[n+]([O-])c1C(N)=O [Compound A6] )
66
